Hi there, I'd appreciate the recorded z-score for every entry that follows.
assay: inhibitors of hydroxyurea-induced Chk1 phosphorylation, primary screen, imaging, HeLa, phospho-Chk1 antibody, percent positive cells (AID 1186); conditions: hydroxyurea-induced phospho-Chk1 immunofluorescence imaging, higher = more signal
One number for each entry.

COC(=O)c1c2oc(c1C(=O)OC)C(=O)N[C@@H](C(C)C)Cn1nncc1C1(CCCCC1)NC(=O)N[C@H](CO)CC2    -0.259
C=CCC(OC(C)=O)[C@@H]1[C@@H](N(Cc2cc3ccccc3o2)C(=O)c2ccc(-c3ccccc3)cc2)c2cc(OCCCO)ccc2N1C(=O)c1ccc(-c2ccccc2)cc1 (stereo not given in full)    -0.604
COc1ccc(C#Cc2ccc3c(c2)[C@]2(C(=O)N3)[C@H](c3ccc(O)cc3)N3[C@H](c4ccccc4)[C@H](c4ccccc4)OC(=O)[C@H]3[C@@H]2C(N)=O)cc1    0.186
Cc1ccc(S[C@]2(C(=O)NC3CC3)CC(=O)N(Cc3ccccc3C(F)(F)F)[C@@H]2c2ccc(CO)cc2I)cc1    0.104
O=C(O)[C@H]1C[C@H]2C(=O)NCC(=O)N2[C@H]1c1cccc(OCCO)c1    0.328
COC(=O)C(CC#Cc1ccc2c(c1)[C@]1(C(=O)N2)[C@H](C(N)=O)[C@H]2C(=O)O[C@H](c3ccccc3)[C@H](c3ccccc3)N2[C@@H]1c1ccc(O)cc1)C(=O)OC    0.16

Provide z-score values for the following items, in order.
1. CC(C)CCC[C@@H](C)[C@H]1CC[C@@]2(C)C3=C(CC[C@]12C)[C@@]1(C)CC[C@H](OC(=O)CCl)C(C)(C)C1CC3 (stereo not given in full)
2. COC(=O)C1=CC(c2ccc(CO)cc2)=CC(C2CC2)N(C)C=C1C(=O)OC (stereo not given)
3. CC(C)NC(=O)[C@@H]1c2ccccc2C(=O)N(Cc2cc(F)cc(C(F)(F)F)c2)[C@H]1c1ccc(CO)cc1
4. C=C(COC)C(=O)CC[C@@H](OC(=O)c1ccccc1-c1ccccc1C(=O)O)c1cccc(OCCO)c1

1. -0.199
2. -0.516
3. -0.121
4. 0.273

Provide z-score values for the following items, in order.
1. C=C(C(=O)CC[C@H](OC(C)=O)c1ccc(CO)o1)C(C)C
2. COCCCNC(=O)[C@@]1(CCS(=O)(=O)c2ccccc2)N=C(c2ccc(OCCCO)cc2)O[C@H]1c1ccccc1CN=[N+]=[N-]
3. C=C(CCCC)/C(=C/C[C@@H](OC(=O)c1ccncc1)c1ccc(OCCO)cc1)c1cnc2ccccc2c1
4. [N-]=[N+]=NCc1ccccc1C[C@@]1(C(=O)NCc2ccccc2)N=C(c2ccc(OCCCO)cc2)O[C@@H]1c1ccccc1
5. CC(C)(C)OC(=O)CC[C@@]1(C(=O)NCc2ccccc2)N=C(c2ccc(OCCCO)cc2)O[C@@H]1c1ccccc1CN=[N+]=[N-]

1: -0.17; 2: -1.07; 3: -0.191; 4: -1.01; 5: -0.763
